# pEC50 listing for each entry below
- system: CDK5/CDK5R2 (Homo sapiens)
- Construct: Full-length kinases were obtained as plasmids cloned in frame with a terminal NanoLuc-fusion; CS1810C174 (CDK5R2)
- Sequence (Q00535 whole entry, the tested form may be a part): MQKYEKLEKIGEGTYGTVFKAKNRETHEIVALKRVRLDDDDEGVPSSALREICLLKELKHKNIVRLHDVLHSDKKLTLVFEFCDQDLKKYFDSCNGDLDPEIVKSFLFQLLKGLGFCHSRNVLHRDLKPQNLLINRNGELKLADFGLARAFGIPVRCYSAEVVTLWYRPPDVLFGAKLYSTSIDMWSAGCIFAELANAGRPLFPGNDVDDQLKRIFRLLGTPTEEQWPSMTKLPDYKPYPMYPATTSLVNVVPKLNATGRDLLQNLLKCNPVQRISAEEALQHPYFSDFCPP
- Sequence (Q13319 whole entry partner, the tested form may be a part): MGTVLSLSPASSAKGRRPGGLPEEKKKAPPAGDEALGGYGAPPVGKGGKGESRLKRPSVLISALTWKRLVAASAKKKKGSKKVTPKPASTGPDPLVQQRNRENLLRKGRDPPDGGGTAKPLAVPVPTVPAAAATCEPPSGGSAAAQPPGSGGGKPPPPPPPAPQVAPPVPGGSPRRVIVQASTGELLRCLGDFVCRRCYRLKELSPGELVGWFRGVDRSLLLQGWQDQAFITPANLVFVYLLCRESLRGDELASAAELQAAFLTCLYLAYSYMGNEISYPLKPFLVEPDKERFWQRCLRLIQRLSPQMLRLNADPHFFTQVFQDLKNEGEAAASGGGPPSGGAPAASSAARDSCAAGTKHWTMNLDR
- procedure_text: NanoBRET
- measurement_conditions: read-out: NanoBRET EC50 ± SEM CDK5/CDK5R2
Quick note: pEC50 values are minus log10 of concentrations in mol/L.

N#CCc1ccc(Nc2nccc(Nc3cc(C4CC4)[nH]n3)n2)cc1 [compound 1, reference compound] ... 7.92

--- query ---
Just so you know, measured pEC50 for COC(=O)c1cc(Nc2ccnc(NCc3ccc(NC(=O)OC(C)(C)C)cc3)n2)[nH]n1 [21i] came out at 4.41

---

- system: DMPK1 (Homo sapiens, UniProt Q09013)
- Construct: purchased in-house DSF panel (SGC Frankfurt)
- Sequence (Q09013 whole entry): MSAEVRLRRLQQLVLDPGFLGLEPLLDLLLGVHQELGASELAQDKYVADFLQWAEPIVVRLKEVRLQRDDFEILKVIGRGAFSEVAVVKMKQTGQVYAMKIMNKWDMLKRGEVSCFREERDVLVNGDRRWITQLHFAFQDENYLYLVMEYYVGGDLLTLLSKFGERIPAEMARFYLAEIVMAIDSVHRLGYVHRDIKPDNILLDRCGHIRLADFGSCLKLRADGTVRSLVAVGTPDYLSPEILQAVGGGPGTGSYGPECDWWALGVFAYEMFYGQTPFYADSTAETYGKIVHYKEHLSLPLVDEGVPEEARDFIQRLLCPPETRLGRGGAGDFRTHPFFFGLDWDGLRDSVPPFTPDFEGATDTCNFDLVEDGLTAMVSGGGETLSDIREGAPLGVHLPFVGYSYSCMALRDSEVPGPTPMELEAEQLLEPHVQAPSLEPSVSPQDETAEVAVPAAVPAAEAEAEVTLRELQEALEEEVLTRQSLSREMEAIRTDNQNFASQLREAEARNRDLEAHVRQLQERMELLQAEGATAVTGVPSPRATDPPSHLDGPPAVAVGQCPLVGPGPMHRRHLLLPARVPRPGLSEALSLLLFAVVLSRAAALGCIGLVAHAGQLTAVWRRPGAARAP
- procedure_text: DSF
- Assay type: binding
Entries and their measured ΔTm DMPK1 follow.
Just the number please, in °C, no unit attached.

// known answers, use as guide
N#CCc1ccc(Nc2nccc(Nc3cc(C4CC4)[nH]n3)n2)cc1 [compound 1, reference compound] ... 3.2
CC(C)(C)OC(=O)Nc1ccc(CNc2nccc(Nc3cc(C(=O)OC(C)(C)C)[nH]n3)n2)cc1 [43d] ... -0.1
COC(=O)c1cc(Nc2ccnc(NCc3ccc(NC(=O)OC(C)(C)C)cc3)n2)[nH]n1 [21i] ... 0.1

Measured ΔTm DMPK1 of COC(=O)c1cc(Nc2ccnc(NCCOCCNC(=O)OC(C)(C)C)n2)[nH]n1 [21d] : 0.5

// field: ΔTm DMPK1; key: CC(C)OC(=O)c1cc(Nc2ccnc(NCc3ccc(NC(=O)OC(C)(C)C)cc3)n2)n[nH]1 [42d] ; value = -0.1

---

- system: CDK4/Cyclin D3 (Homo sapiens, UniProt P11802)
- Construct: Full-length kinases were obtained as plasmids cloned in frame with a terminal NanoLuc-fusion; CS1810C87 (CCND3)
- Sequence (P11802 whole entry, the tested form may be a part): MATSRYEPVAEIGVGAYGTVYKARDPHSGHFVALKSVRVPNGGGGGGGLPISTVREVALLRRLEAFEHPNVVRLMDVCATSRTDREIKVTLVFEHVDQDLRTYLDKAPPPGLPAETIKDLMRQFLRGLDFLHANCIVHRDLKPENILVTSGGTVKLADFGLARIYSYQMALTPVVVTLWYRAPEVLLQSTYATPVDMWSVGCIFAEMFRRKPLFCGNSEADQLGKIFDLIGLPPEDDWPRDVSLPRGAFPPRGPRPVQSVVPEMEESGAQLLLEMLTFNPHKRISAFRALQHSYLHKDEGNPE
- Sequence (P30281 whole entry partner, the tested form may be a part): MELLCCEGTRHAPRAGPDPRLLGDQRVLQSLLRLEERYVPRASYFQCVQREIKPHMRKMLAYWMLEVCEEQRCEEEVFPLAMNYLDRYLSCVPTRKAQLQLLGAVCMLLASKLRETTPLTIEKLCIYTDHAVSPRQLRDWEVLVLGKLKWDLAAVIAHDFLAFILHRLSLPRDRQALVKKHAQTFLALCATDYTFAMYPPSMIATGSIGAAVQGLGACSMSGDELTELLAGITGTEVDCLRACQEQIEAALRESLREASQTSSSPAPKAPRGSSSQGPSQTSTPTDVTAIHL
- procedure_text: NanoBRET
- measurement_conditions: read-out: NanoBRET EC50 ± SEM CDK4/Cyclin D3
Reported EC50 values are given for each entry in this list.
Your answer is read as nM, so omit the unit and give the number.

Example cases with answers are listed next.
CC(C)OC(=O)c1cc(Nc2ccnc(NCc3ccc(NC(=O)OC(C)(C)C)cc3)n2)n[nH]1 [42d] ... 508
N#CCc1ccc(Nc2nccc(Nc3cc(C4CC4)[nH]n3)n2)cc1 [compound 1, reference compound] ... 32.1
CC(C)(C)OC(=O)Nc1ccc(CNc2nccc(Nc3cc(C(=O)OC(C)(C)C)[nH]n3)n2)cc1 [43d] ... 908

# ---- query compound ----
compound COC(=O)c1cc(Nc2ccnc(NCc3ccc(NC(=O)OC(C)(C)C)cc3)n2)[nH]n1 [21i] , EC50 observed: 6780

---

Below is a list of entries, each paired with its recorded ΔTm CASK value.
- system: CASK (Homo sapiens)
- Construct: purchased in-house DSF panel (SGC Frankfurt)
- Sequence (O14936 1-337): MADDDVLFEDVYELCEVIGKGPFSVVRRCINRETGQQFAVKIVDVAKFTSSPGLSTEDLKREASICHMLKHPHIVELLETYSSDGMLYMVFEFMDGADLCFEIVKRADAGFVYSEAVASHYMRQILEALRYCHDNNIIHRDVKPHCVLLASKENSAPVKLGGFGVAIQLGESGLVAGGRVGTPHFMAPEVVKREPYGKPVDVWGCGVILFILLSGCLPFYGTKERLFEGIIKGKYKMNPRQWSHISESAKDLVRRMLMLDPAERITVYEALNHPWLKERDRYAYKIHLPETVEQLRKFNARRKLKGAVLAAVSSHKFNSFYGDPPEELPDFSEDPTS
- procedure_text: DSF
- Assay type: binding
Quick reminder: number only, in °C, skip the unit.

Reference set (3 entries):
COC(=O)c1cc(Nc2ccnc(NCc3ccc(NC(=O)OC(C)(C)C)cc3)n2)[nH]n1 [21i] ... 0.2
CC(C)(C)OC(=O)Nc1ccc(CNc2nccc(Nc3cc(C(=O)OC(C)(C)C)[nH]n3)n2)cc1 [43d] ... 0.4
COC(=O)c1cc(Nc2ccnc(NCCOCCNC(=O)OC(C)(C)C)n2)[nH]n1 [21d] ... 0.4

Tested system CASK (Homo sapiens); ΔTm CASK recorded for CC(C)OC(=O)c1cc(Nc2ccnc(NCc3ccc(NC(=O)OC(C)(C)C)cc3)n2)n[nH]1 [42d] was 0.4

Tested on CASK (Homo sapiens), the item N#CCc1ccc(Nc2nccc(Nc3cc(C4CC4)[nH]n3)n2)cc1 [compound 1, reference compound] showed ΔTm CASK equal to 2.0
